- System: Plasma
- run-description: Anticoagulant activity in human plasma assessed as concentration required to double prothrombin time
- Type: functional
Below, each entry is listed alongside its reported 2PT.
Please reply with the bare figure in µM and do not write the unit itself.

query-smiles	reading
COc1ccc(-c2nn(Cc3nn(-c4ccc(OC)cc4)c4c3CCN(c3ccc(N5CCCCC5=O)cc3)C4=O)c(=O)[nH]2)cc1	17.7
COc1ccc(-n2nc(Cn3cnc(-c4cccnc4)n3)c3c2C(=O)N(c2ccc(N4CCCCC4=O)cc2)CC3)cc1	2
COc1ccc(-n2nc(Cn3nc(-c4ccccc4)[nH]c3=O)c3c2C(=O)N(c2ccc(N4CCCCC4=O)cc2)CC3)cc1	11.7

Challenge: Fill in 2PT for `COc1ccc(-n2nc(Cn3nnc4ccccc43)c3c2C(=O)N(c2ccc(N4CCCCC4=O)cc2)CC3)cc1` tested with Plasma.
Response given: 25.2

====

- System: Plasma
- run-description: Anticoagulant activity in human plasma assessed as concentration required to double prothrombin time
- Format: functional
measured-quantity: 2PT

compound	2PT
COc1ccc(-n2nc(C3=NCCCCN3)c3c2C(=O)N(c2ccc(N4CCCCC4=O)cc2)CC3)cc1	10.9 µM
COc1ccc(-n2nc(C3=NC(C)CN3)c3c2C(=O)N(c2ccc(N4CCCCC4=O)cc2)CC3)cc1 (centres undefined)	8.9 µM
COc1ccc(-n2nc(Cn3cnc(-c4ccc(Cl)cc4)n3)c3c2C(=O)N(c2ccc(N4CCCCC4=O)cc2)CC3)cc1	1.9 µM

Would you kindly look at the next entry?
Challenge: Query 2PT for `COc1ccc(-c2ncn(Cc3nn(-c4ccc(OC)cc4)c4c3CCN(c3ccc(N5CCCCC5=O)cc3)C4=O)n2)cc1`
Response given: 0.8 µM

====

- Test system: Plasma
- run-description: Anticoagulant activity in human plasma assessed as concentration required to double activated partial thromboplastin time
- Assay type: functional
measured-quantity: 2aPTT (µM)
Answer in µM, number only, no unit symbol.

Below, each entry is followed by its recorded 2aPTT result.
compound	2aPTT, µM
COc1ccc(-n2nc(Cn3ccnn3)c3c2C(=O)N(c2ccc(N4CCCCC4=O)cc2)CC3)cc1	3.7
COc1ccc(-n2nc(-n3cnnc3N)c3c2C(=O)N(c2ccc(N4CCCCC4=O)cc2)CC3)cc1	8.3
COc1ccc(-n2nc(-n3cnnn3)c3c2C(=O)N(c2ccc(N4CCCCC4=O)cc2)CC3)cc1	7.3
COc1ccc(-n2nc(Cn3cnc(-c4ccc(F)cc4)n3)c3c2C(=O)N(c2ccc(N4CCCCC4=O)cc2)CC3)cc1	2.3
CCN(CC)Cc1nncn1-c1nn(-c2ccc(OC)cc2)c2c1CCN(c1ccc(N3CCCCC3=O)cc1)C2=O	9.6

Challenge: Look up and report measured 2aPTT (Plasma) for the following compound: `COc1ccc(-n2nc(Cn3cc(C#N)nn3)c3c2C(=O)N(c2ccc(N4CCCCC4=O)cc2)CC3)cc1`
Response given: 1

Challenge: Check Plasma data and give 2aPTT for `COc1ccc(-n2nc(-n3cnnc3CN3CCOCC3)c3c2C(=O)N(c2ccc(N4CCCCC4=O)cc2)CC3)cc1` .
Response given: 0.7

Challenge: // output 2aPTT; input `COc1ccc(-n2nc(-n3cnnc3CN3CCCC3)c3c2C(=O)N(c2ccc(N4CCCCC4=O)cc2)CC3)cc1` ; system Plasma
Response given: 15.6

Challenge: Give 2aPTT for this entry on Plasma: `COc1ccc(-n2nc(Cn3cnc(-c4ccc(Cl)cc4)n3)c3c2C(=O)N(c2ccc(N4CCCCC4=O)cc2)CC3)cc1`
Response given: 3.6

Challenge: Give reported 2aPTT for `COc1ccc(-n2nc(Cn3nc(-c4ccccc4)[nH]c3=O)c3c2C(=O)N(c2ccc(N4CCCCC4=O)cc2)CC3)cc1` (Plasma)
Response given: 27.1

Challenge: Fetch value of 2aPTT on Plasma for `COc1ccc(-n2nc(C3=NCCCCN3)c3c2C(=O)N(c2ccc(N4CCCCC4=O)cc2)CC3)cc1` .
Response given: 24.3

Challenge: Report measured 2aPTT on Plasma; entry: `COc1ccc(-c2ncn(Cc3nn(-c4ccc(OC)cc4)c4c3CCN(c3ccc(N5CCCCC5=O)cc3)C4=O)n2)cc1`
Response given: 1.1

Challenge: State recorded 2aPTT with Plasma, entry `COc1ccc(-c2nn(Cc3nn(-c4ccc(OC)cc4)c4c3CCN(c3ccc(N5CCCCC5=O)cc3)C4=O)c(=O)[nH]2)cc1` , no comment.
Response given: 19.5

Challenge: Report value only: 2aPTT, Plasma, `COc1ccc(-n2nc(Cn3cc(C(N)=O)nn3)c3c2C(=O)N(c2ccc(N4CCCCC4=O)cc2)CC3)cc1`
Response given: 3.1

Challenge: Look up Plasma data: 2aPTT of `COc1ccc(-n2nc(C3=NCCN3)c3c2C(=O)N(c2ccc(N4CCCCC4=O)cc2)CC3)cc1` , then report it.
Response given: 11.8

Challenge: Provide Plasma 2aPTT reading for `COc1ccc(-n2nc(Cn3cnc(-c4ccccc4)n3)c3c2C(=O)N(c2ccc(N4CCCCC4=O)cc2)CC3)cc1` .
Response given: 3.6

Challenge: Give reported 2aPTT for `COc1ccc(-n2nc(Cn3cnc(-c4ccncc4)n3)c3c2C(=O)N(c2ccc(N4CCCCC4=O)cc2)CC3)cc1` (Plasma)
Response given: 2.3

Challenge: Please respond with reported 2aPTT (system Plasma) for `COc1ccc(-n2nc(-n3cnnc3)c3c2C(=O)N(c2ccc(N4CCCCC4=O)cc2)CC3)cc1` .
Response given: 10

Challenge: Provide Plasma 2aPTT reading for COc1ccc(-n2nc(C3=NC(C)CN3)c3c2C(=O)N(c2ccc(N4CCCCC4=O)cc2)CC3)cc1 (stereo not given) .
Response given: 14.6

Reference for the values: ChEMBL document CHEMBL4024723
